# experimental.target: T1, GST-KIAA0303 PDZ domain fusion protein (Homo sapiens (Human), UniProt O15021 1138-1228)
# T1 construct: also called K303; not shown: glutathione S-transferase encoded by vector pGEX-3X (Pharmacia)
# T1 sequence: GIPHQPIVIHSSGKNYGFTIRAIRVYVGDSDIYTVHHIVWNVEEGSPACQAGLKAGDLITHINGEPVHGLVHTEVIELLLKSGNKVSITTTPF
# experiment.notes: A/G assays
Ends that are not written are not given here. * marks the point of attachment. Biotin = O=C1N[C@H]2[C@H](CS[C@H]2CCCCC(=O)*)N1

{"columns": ["binder", "binding result"],
 "data": [
  ["Biotin-TTNNNPNSAVNIKKIFTDV [KV1.3 C-terminal peptide AA33L, biotinylated]", "no binding"],
  ["Biotin-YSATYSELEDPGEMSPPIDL (also called FceRlb; FcεRβI) [FceRIb C-terminal peptide AA25L, biotinylated]", "no binding"],
  ["Biotin-KDSRPSFVGSSSGHTSTTL (also called CDW128E (IL8RB)) [CDW128B (IL8RB) C-terminal peptide AA29.2L, biotinylated]", "no binding"],
  ["Biotin-SSKSKSSEESQTFFGLYKL (not fully specified, also called FasLigand; Fas ligand) [FasL C-terminal peptide AA23L-M, biotinylated]", "no binding"],
  ["Biotin-GKGKSIGRAPEASLQDKEGA (Only the last four residues are seen in the excerpts) [CC CKR-2 C-terminal peptide AA42L]", "no binding"],
  ["Biotin-LNFPLLQGIRVHGMEALGSF (Only the last four residues are seen in the excerpts) [CD114 (G-CSFR) C-terminal peptide AA27L]", "no binding"],
  ["Biotin-SSSQSLESDGSYQKPSYIL (Only the last four residues are seen in the excerpts) [CD62E C-terminal peptide AA48L]", "no binding"],
  ["Biotin-ARHRVTSYTSSSVNVSSNL [CDW128A (IL8RA) C-terminal peptide AA29.1L, biotinylated]", "no binding"],
  ["Biotin-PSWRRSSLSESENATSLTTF (also called CXCR5) [BLR-1 C-terminal peptide AA45L, biotinylated]", "no binding"],
  ["Biotin-SMQPDNSSDSDYDLHGAQRL (Only the last four residues are seen in the excerpts) [CD5 C-terminal peptide AA49L]", "no binding"],
  ["Biotin-QGDPALQDAGDSSRKEYFI (also called GC) [Glycophorin C C-terminal peptide AA37L, biotinylated]", "no binding"],
  ["Biotin-LERVSSTSPSTGEHELSAGF (Only the last four residues are seen in the excerpts) [CC CKR-1R C-terminal peptide AA41L]", "no binding"]
]}

Values were extracted from patent US20050037969A1.
